From: patent US12139477B2

testedOn: hERG channel (Homo sapiens)
Construct: host or cells: CHO cells, stably transfected
assayProtocol: hERG assay, whole cell recordings in CHO cells (AVIVA)
Type: cell-based
measurementContext: CHO cells stably expressing hERG, pH 7.4
If the reported inhibition at 1 µM equals or exceeds 20%, assign Y. If not, assign N.

Field: example entries. Status: answers known.
Cc1cc2cc(CNC(=O)N(Cc3ccc(F)cc3F)C3CCN(C)CC3)ccc2[nH]1 [Example 36]	Y
CN1CCC(N(Cc2ccc(F)cc2F)C(=O)NCc2ccc3c(c2)OCCOC3)CC1 [Example 52]	N
C#CCOc1ccc(CNC(=O)N(Cc2ccc(F)cc2F)C2CCN(C)CC2)cc1 [Example 148, Trifluoroacetic Acid]	Y
CN1CCC(N(Cc2ccc(F)cc2F)C(=O)NCc2ccc3c(c2)CCN3C)CC1 [Example 23]	N
CN1CCC(N(Cc2ccc(F)cc2F)C(=O)NCc2ccc3c(c2)n(C)c(=O)n3C)CC1 [Example 40]	N

Could you tell me if the measured inhibition at 1 µM of Cc1ccc(CN(C(=O)NCc2ccc(OC(C)C)cc2)C2CCN(C)CC2)c(F)c1 [Example 115, Trifluoroacetic Acid] reaches 20% or more?
Y

State whether the measured inhibition at 1 µM reaches 20%, counting equality as reaching it, for CN1CCC(N(Cc2ccc(F)cc2F)C(=O)NCc2ccc3c(c2)COC3)CC1 [Example 95, Trifluoroacetic Acid]
N

Evaluate CC(C)Oc1ccc(CNC(=O)N(Cc2ccc([N+](=O)[O-])cc2F)C2CCN(C)CC2)cc1 [Example 44] : inhibition at 1 µM at minimum 20%?
Y

Exam item: decide whether the reported inhibition at 1 µM for CC(C)COc1ccc(CNC(=O)N(Cc2ccc(F)cc2)C2CCN(C)CC2)c(O)c1 [Example 14] is at least 20%.
Y

----------
testedOn: 5HT2A (Homo sapiens, UniProt P28223)
Sequence (P28223 whole entry): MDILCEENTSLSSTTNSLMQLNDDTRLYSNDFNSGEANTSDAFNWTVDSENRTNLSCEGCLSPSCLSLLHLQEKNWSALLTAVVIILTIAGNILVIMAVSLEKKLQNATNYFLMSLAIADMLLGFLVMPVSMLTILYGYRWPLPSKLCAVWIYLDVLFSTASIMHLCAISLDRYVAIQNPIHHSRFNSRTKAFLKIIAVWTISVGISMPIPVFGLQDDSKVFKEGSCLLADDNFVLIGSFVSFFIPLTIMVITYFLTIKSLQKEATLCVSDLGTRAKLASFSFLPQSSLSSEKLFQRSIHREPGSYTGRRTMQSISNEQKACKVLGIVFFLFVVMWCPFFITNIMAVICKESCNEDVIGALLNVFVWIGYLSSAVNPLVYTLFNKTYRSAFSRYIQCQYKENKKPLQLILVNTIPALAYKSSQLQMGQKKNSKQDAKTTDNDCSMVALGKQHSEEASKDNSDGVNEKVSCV
assayProtocol: Receptor Selection and Amplification (R-SAT) functional assay
Assay type: cell-based
Parameters: expressed in transfected cells; host or cells: NIH3T3 cells, pSI mammalian expression vector
measurementContext: NIH3T3 cells; Ki from IC50 by Cheng and Prussoff; read-out: 5-HT2a (pKi) (R-SAT) (converted)
Give measured log10(Ki) for each item. Keep answers brief.
Values below are the log10 of the recorded Ki, with nM as the unit.

Below is a list of molecules. For each, state its recorded log10(Ki).
1. CC(C)COc1ccc(CNC(=O)N(Cc2cc(F)ccc2F)C2CCN(C)CC2)cc1 [Example 63]
2. [2H]C([2H])([2H])Oc1ccc(CNC(=O)N(Cc2ccc(F)cc2F)C2CCN(C)CC2)cc1 [Example 73]

[1.90, 0.80]

----------
Assignment: determine reported Ki for the given compounds.
testedOn: UniProtKB P28223
assayProtocol: Receptor Selection and Amplification (R-SAT) functional assay
Assay type: cell-based
Parameters: expressed in transfected cells; host or cells: NIH3T3 cells, pSI mammalian expression vector
measurementContext: NIH3T3 cells; Ki from IC50 by Cheng and Prussoff; read-out: 5-HT2a (pKi) (R-SAT) (converted)
One number for each entry, in nM.

Some solved cases for reference:
CC(C)Oc1ccc(CNC(=O)N(Cc2ccc(F)cc2F)C2CCN(C)CC2)cc1F [Example 143, Trifluoroacetic Acid]	0.501
COc1ccc(CNC(=O)N(Cc2ccc(F)cc2F)C2CCN(C)CC2)cc1C#N [Example 48]	100
C[C@H](c1ccc(F)cc1F)N(C(=O)NCc1ccc(OC2CC2)cc1)C1CCN(C)CC1 [Example 47]	126

Attention now shifts to the item below.
Item under review: CC(C)Oc1ccc(CNC(=O)N(Cc2ccc(F)cc2F)[C@H]2C[C@H]3CC[C@@H](C2)N3C)cc1 [Example 84] . Reported Ki?
50.1

----------
testedOn: 5HT2A (Homo sapiens)
assayProtocol: Receptor Selection and Amplification (R-SAT) functional assay
Format: cell-based
Design: expressed in transfected cells; host or cells: NIH3T3 cells, pSI mammalian expression vector
measurementContext: NIH3T3 cells; Ki from IC50 by Cheng and Prussoff; read-out: 5-HT2a (pKi) (R-SAT) (converted)
# label = t if Ki < 30 nM else f

Worked set:
CC(C)Oc1ccc(CNC(=O)N(Cc2ccc(F)cc2Cl)C2CCNCC2)cc1 [Example 110, Trifluoroacetic Acid]	t
CN1CCC(N(Cc2ccc(F)cc2F)C(=O)NCc2ccc3c(c2)CC(C)(C)O3)CC1 [Example 8]	t
CC(C)COc1ccc(CNC(=O)N(Cc2ccc(F)cc2F)C2CCNCC2)cc1 [Example 4]	t
COc1ccc(CNC(=O)N(Cc2ccc(F)cc2F)C2CCN(C)CC2)cc1 [Example 125]	t
COc1ccc(CN(C(=O)NCc2ccc(OCC(C)C)cc2)C2CCN(C)CC2)c(OC)c1 [Example 2]	f
CC(C)Oc1ccc(CNC(=O)N(Cc2ccc(F)cc2F)C2CCCN(C)CC2)cc1 (centres unmarked) [Example 78, Trifluoroacetic Acid]	t

Would you kindly verify if Ki of CN1CCC(N(Cc2ccc(F)cc2F)C(=O)NCc2ccc(O)cc2F)CC1 [Example 119] is strictly less than 30 nM?
f

Hello, is Ki of the following molecule strictly smaller than 30 nM? CC(C)Oc1ccc(CNC(=O)N(Cc2ccc(Cl)cc2Cl)C2CCNCC2)cc1 [Example 108, Trifluoroacetic Acid]
f

----------
testedOn: hERG channel (Homo sapiens, UniProt Q12809)
Construct: host or cells: CHO cells, stably transfected
Sequence (Q12809 whole entry): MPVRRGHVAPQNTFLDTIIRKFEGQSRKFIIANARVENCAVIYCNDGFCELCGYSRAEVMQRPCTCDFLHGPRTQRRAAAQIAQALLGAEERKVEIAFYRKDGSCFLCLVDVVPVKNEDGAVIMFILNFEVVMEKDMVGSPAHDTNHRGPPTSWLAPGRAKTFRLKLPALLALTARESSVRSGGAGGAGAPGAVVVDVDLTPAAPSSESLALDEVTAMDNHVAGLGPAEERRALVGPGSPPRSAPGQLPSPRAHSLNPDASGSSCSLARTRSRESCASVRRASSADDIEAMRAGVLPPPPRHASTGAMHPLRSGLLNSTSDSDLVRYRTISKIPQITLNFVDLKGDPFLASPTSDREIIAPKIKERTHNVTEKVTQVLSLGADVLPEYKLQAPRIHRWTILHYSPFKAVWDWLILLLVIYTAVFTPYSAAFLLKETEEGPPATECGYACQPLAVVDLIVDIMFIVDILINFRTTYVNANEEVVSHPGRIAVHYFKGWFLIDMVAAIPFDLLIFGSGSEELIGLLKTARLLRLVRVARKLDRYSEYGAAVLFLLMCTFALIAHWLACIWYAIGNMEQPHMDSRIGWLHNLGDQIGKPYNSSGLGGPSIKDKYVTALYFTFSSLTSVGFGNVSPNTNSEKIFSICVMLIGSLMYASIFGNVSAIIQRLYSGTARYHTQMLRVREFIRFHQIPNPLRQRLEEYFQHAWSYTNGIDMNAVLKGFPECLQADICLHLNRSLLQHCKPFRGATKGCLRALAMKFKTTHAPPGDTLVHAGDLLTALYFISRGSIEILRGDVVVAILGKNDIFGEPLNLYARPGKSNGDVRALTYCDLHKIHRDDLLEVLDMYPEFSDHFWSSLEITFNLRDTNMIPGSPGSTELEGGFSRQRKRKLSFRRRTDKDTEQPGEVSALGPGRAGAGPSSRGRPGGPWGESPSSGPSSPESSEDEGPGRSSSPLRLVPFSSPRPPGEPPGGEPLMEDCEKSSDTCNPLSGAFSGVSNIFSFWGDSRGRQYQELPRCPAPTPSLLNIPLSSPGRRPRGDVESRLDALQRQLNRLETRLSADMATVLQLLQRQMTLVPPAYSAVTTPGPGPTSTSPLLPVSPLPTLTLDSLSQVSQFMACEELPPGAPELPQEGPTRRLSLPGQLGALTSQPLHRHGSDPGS
assayProtocol: hERG assay, whole cell recordings in CHO cells (AVIVA)
Format: cell-based
measurementContext: CHO cells stably expressing hERG, pH 7.4
measurementKind: inhibition at 1 µM (%)
Give bare numbers, in %.

Known results for compounds:
CC(C)Oc1ccc(CNC(=O)N(Cc2ccc(C#N)cc2F)C2CCN(C)CC2)cc1	42
CN1CCC(N(Cc2ccc(F)cc2F)C(=O)NCc2ccc3c(c2)ncn3C)CC1	10
CC1(C)Cc2cc(CNC(=O)N(Cc3ccc(F)cc3F)C3CCNCC3)ccc2O1	8
CN1CCC(N(Cc2ccc(F)cc2F)C(=O)NCc2ccc(OCCF)cc2)CC1	19

Kindly give each listed record's inhibition at 1 µM.
1. O=C(NCc1ccc(OC2CC2)cc1)N(Cc1ccc(F)cc1F)C1CCNCC1
2. CC(=O)Oc1cc(F)ccc1CN(C(=O)NCc1ccc(OCC(C)C)cc1)C1CCN(C)CC1 [Example 92, acetate; Trifluoroacetic Acid]
3. CC(C)Oc1ccc(CNC(=O)N(Cc2ccc(F)cc2F)C2CCN(C)CC2)cc1
4. CC(C)Oc1ccc(CNC(=O)N(Cc2ccc(F)cc2F)C2CCN(C)CC2)cc1F

1. 20
2. 45
3. 29
4. 41

I'm hoping you can list inhibition at 1 µM for every compound here, please.
1. CN1CCC(N(Cc2ccc(F)cc2F)C(=O)NCc2ccc(OCC3CC3)cc2)CC1
2. CCOc1ccc(CNC(=O)N(Cc2ccc(F)cc2F)C2CCN(C)CC2)cc1
3. C=CCOc1ccc(CNC(=O)N(Cc2ccc(F)cc2F)C2CCN(C)CC2)cc1
4. CN1CCC(N(Cc2ccc(F)cc2F)C(=O)NCc2ccc3c(c2)CCO3)CC1
5. CN1CCC(N(Cc2ccc(F)cc2F)C(=O)NCc2ccc3c(c2)CC(C)(C)O3)CC1

1: 42; 2: 29; 3: 33; 4: 10; 5: 22

----------
So I've got a bunch of compounds here, and I need their Ki values.
testedOn: 5HT2A (Homo sapiens, UniProt P28223)
assayProtocol: Receptor Selection and Amplification (R-SAT) functional assay
Assay type: cell-based
Parameters: expressed in transfected cells; host or cells: NIH3T3 cells, pSI mammalian expression vector
measurementContext: NIH3T3 cells; Ki from IC50 by Cheng and Prussoff; read-out: 5-HT2a (pKi) (R-SAT) (converted)

Examples from the recorded data:
CC(C)Oc1ccc(CNC(=O)N(Cc2ccc(Cl)cc2F)C2CCNCC2)cc1	5.01 nM
CN1CCC(N(Cc2ccc(F)cc2F)C(=O)NCc2ccc(OCCCF)cc2)CC1	2 nM

Required: Ki, one value per compound below.
1. CN1CCC(N(Cc2ccc(F)cc2F)C(=O)NCc2ccc(C(C)(F)F)cc2)CC1
2. CN1CCC(N(Cc2ccc(F)cc2F)C(=O)NCc2ccc(F)cc2)CC1
3. CCCOc1ccc(CNC(=O)N(Cc2ccc(F)cc2F)C2CCNCC2)cc1
4. COCCCOc1ccc(CNC(=O)N(Cc2ccc(F)cc2F)C2CCN(C)CC2)cc1
5. C#CCOc1ccc(CNC(=O)N(Cc2ccc(F)cc2F)C2CCN(C)CC2)cc1
6. CC(C)COc1ccc(CNC(=O)N(Cc2ccc(F)cc2OCc2ccccc2)C2CCN(C)CC2)cc1 [Example 13b]

["2.51 nM", "6.31 nM", "3.98 nM", "10 nM", "2 nM", "63.1 nM"]

----------
testedOn: hERG channel (Homo sapiens, UniProt Q12809)
Construct: host or cells: CHO cells, stably transfected
assayProtocol: hERG assay, whole cell recordings in CHO cells (AVIVA)
Type: cell-based
measurementContext: CHO cells stably expressing hERG, pH 7.4
Kindly supply the reported inhibition at 1 µM values for the records listed here.
Numbers only, in %.

List the reported inhibition at 1 µM of each molecule below.
1. CN1CCC(N(Cc2ccc(F)cc2F)C(=O)NCc2ccc(OC(CF)CF)cc2)CC1
2. CC(C)COc1ccc(CNC(=O)N(Cc2ccc(F)cc2O)C2CCN(C)CC2)cc1
3. CN1CCC(N(Cc2ccc(F)cc2F)C(=O)NCc2ccc3c(c2)CCS3(=O)=O)CC1
4. COc1cc(CNC(=O)N(Cc2ccc(F)cc2F)C2CCN(C)CC2)ccc1Cl

1. 29
2. 34
3. 8
4. 62
